Assignment: determine reported activity, negative = cell killing for the given compounds.
PROCEDURE DETAILS: Drug repurposing screens with cells derived from glioblastoma tumor samples (AID 1345199); note: % is set by controls: 0 for no effect and ±100 for the full control effect; nearly all actives have a fitted effect of over 40% in size
TEST CONTEXT: GBM patient neurospheres viability, ATP luminescence, 48 h; at 45.9 µM (top of the series); tumour line B
Results filed as inconclusive are left out.
Numbers only, in %.

Solved entries:
- COMPOUND: "NCCCC(N)(C(=O)O)C(F)F (stereo unspecified)"
  NUMBER: -9.02
- COMPOUND: "NC[C@H](O)c1ccc(O)c(O)c1"
  NUMBER: -10.5

// each compound listed below needs its activity, negative = cell killing
1. Cc1c(C)c2c(c(C)c1O)CCC(C)(COc1ccc(CC3SC(=O)NC3=O)cc1)O2 (stereo unspecified)
2. NCCc1ccc(O)c(O)c1
3. Cc1ccc(N(CC2=NCCN2)c2cccc(O)c2)cc1
4. Nc1nc2[nH]cc(CCc3ccc(C(=O)N[C@@H](CCC(=O)O)C(=O)O)cc3)c2c(=O)[nH]1

Return:
1: -4.67; 2: -2.97; 3: -13.6; 4: -23.6

###

TESTED ON: Cytochrome P450 2D6 (Homo sapiens) (UniProt P10635)
Sequence (P10635 whole entry, looked up): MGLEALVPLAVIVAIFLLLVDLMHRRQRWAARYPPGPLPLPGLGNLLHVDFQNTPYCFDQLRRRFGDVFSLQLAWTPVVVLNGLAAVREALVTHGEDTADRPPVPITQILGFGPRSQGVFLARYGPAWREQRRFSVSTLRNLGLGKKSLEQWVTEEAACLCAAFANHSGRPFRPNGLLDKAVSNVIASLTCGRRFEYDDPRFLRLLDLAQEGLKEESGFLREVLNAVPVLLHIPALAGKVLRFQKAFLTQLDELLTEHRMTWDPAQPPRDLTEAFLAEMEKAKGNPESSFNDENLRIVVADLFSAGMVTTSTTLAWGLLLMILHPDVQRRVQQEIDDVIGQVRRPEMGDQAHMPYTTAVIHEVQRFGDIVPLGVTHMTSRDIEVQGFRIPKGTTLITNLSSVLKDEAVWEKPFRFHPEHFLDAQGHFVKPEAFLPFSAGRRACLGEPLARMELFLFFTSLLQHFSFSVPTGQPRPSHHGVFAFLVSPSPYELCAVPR
PROCEDURE DETAILS: qHTS Assay for Inhibitors and Substrates of Cytochrome P450 2D6 (AID 891); note: nearly all actives have a fitted effect of over 60% in size; note: potency is the fitted concentration of half-maximal effect
TEST CONTEXT: recombinant CYP2D6, luciferin-ME EGE luminescence; series mostly up to 57.1 µM
Records with an inconclusive call do not appear. Active and inactive are the calls of the source. Calls come from the whole dose curve; as a rule, active = well fitted inhibition curve with a large enough effect; inconclusive = small, poorly fitted or top-dose-only effect; inactive = no such curve, though single readings can be large or run the other way.
OBSERVATION TYPE: Potency

- SMILES RECORD: "O=C1CCc2cc(OCCCCc3nnnn3C3CCCCC3)ccc2N1"
  OBSERVATION TYPE: "Potency"
  RESULT: "inactive"
- SMILES RECORD: "C1COC(NC(C2CC2)C2CC2)=N1"
  OBSERVATION TYPE: "Potency"
  RESULT: "0.398 µM (active)"
- SMILES RECORD: "CCN(c1ccccc1)c1cc(NC)[n+](C)c(C)n1"
  OBSERVATION TYPE: "Potency"
  RESULT: "3.98 µM (active)"
- SMILES RECORD: "NC(=O)c1cnccn1"
  OBSERVATION TYPE: "Potency"
  RESULT: "inactive"
- SMILES RECORD: "N=c1nc(N2CCCCC2)cc(N)n1O"
  OBSERVATION TYPE: "Potency"
  RESULT: "inactive"

Let us examine a further case.
Enquiry: Endpoint output: Potency of `CC(=O)Oc1ccccc1C(=O)O` . Value?
Return: inactive

###

PROCEDURE DETAILS: Quantitative High-Throughput drug screen in 47 multiple myeloma cell lines against the NCATS MIPE library collection: KMS20_JCRB cell viability assay (AID 1918973); note: nearly all actives have a fitted effect of over 45% in size
TEST CONTEXT: CellTiter-Glo ATP, 48 h; series mostly up to 45.8 µM
Results filed as inconclusive are left out. Activity calls are given as the source filed them. Calls come from the whole dose curve; as a rule, active = well fitted cell-killing curve with a large enough effect; inconclusive = small, poorly fitted or top-dose-only effect, or effect the other way; inactive = no such curve, though single readings can be large or run the other way.
Hello, when you answer, please use one of the following outcomes: active, inactive

- COMPOUND: "Cc1cc2c(C(C)C)c(O)c(O)c(C=O)c2c(O)c1-c1c(C)cc2c(C(C)C)c(O)c(O)c(C=O)c2c1O"
  LABEL VALUE: "active"

Now for a further compound.
Enquiry: Returns: the outcome recorded for `C1COC(NC(C2CC2)C2CC2)=N1` in this assay.
Return: inactive

###

TESTED ON: Nicotinamide N-methyltransferase (Homo sapiens) (UniProt P40261)
Sequence (P40261 whole entry, looked up): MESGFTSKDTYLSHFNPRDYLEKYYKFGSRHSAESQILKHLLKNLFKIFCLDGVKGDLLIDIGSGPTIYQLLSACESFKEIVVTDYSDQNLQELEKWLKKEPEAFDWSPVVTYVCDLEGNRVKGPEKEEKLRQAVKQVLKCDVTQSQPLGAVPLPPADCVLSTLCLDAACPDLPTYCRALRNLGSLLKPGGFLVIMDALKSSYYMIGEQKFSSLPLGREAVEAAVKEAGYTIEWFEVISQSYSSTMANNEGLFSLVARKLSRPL
PROCEDURE DETAILS: Confirmatory Screen for Target Class Profiling of Small Molecule Inhibitors of Methyltransferases (AID 1745852)
TEST CONTEXT: MTase-Glo luminescence, SAH detection, recombinant enzyme; measured here: NNMT max response; stronger effect = lower value
OBSERVATION TYPE: activity (%)
One number for each entry, in %.

- MOLECULE: "CC(C)(Sc1ccc(CCN(CCCCC2CCCCC2)C(=O)NC2CCCCC2)cc1)C(=O)O"
  TESTED ON: "Nicotinamide N-methyltransferase (Homo sapiens) (UniProt P40261)"
  UNIT LABEL: "%"
  activity: -46.1
- MOLECULE: "Cc1ccccc1C(OCCN(C)C)c1ccccc1 (stereo unspecified)"
  TESTED ON: "Nicotinamide N-methyltransferase (Homo sapiens) (UniProt P40261)"
  UNIT LABEL: "%"
  activity: -5.32
- MOLECULE: "CCCS(=O)(=O)Nc1ccc(F)c(C(=O)c2c[nH]c3ncc(-c4ccc(Cl)cc4)cc23)c1F"
  TESTED ON: "Nicotinamide N-methyltransferase (Homo sapiens) (UniProt P40261)"
  UNIT LABEL: "%"
  activity: -26
- MOLECULE: "Cc1cnc(Nc2ccc(OCCN3CCCC3)cc2)nc1Nc1cccc(S(=O)(=O)NC(C)(C)C)c1"
  TESTED ON: "Nicotinamide N-methyltransferase (Homo sapiens) (UniProt P40261)"
  UNIT LABEL: "%"
  activity: -31.4
- MOLECULE: "NC[C@H](O)c1ccc(O)c(O)c1"
  TESTED ON: "Nicotinamide N-methyltransferase (Homo sapiens) (UniProt P40261)"
  UNIT LABEL: "%"
  activity: 2.1

Enquiry: Can you look up activity on Nicotinamide N-methyltransferase (Homo sapiens) (UniProt P40261) for `COc1cc2c(cc1OC)CN(CCc1ccc(NC(=O)c3cccc4c(=O)c5cccc(OC)c5[nH]c34)cc1)CC2` ?
Return: -75.2

###

TESTED ON: Calcium and integrin-binding protein 1 (Homo sapiens) (UniProt Q99828)
Sequence (Q99828 whole entry, looked up): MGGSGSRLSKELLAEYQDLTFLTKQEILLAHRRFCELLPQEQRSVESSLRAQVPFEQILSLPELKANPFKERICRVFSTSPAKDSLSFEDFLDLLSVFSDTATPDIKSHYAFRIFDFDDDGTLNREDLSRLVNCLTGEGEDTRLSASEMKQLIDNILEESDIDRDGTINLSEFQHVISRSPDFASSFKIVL
PROCEDURE DETAILS: Primary qHTS for Identification of Calcium Integrin Binding Protein 1 (CIB1) Competitor (AID 1508620);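 note: GST tagged CIB1 binding a fluorescein labelled alphaIIb integrin peptide tracer; top concentration of the series differs between compounds; % is set by controls: 0 for no effect and ±100 for the full control effect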
TEST CONTEXT: CIB1-GST / FITC-alphaIIb peptide fluorescence polarization; series mostly up to 57.7 µM
Inconclusive results are not listed. Activity calls are given as the source filed them. Calls follow the shape of the dose curve; as a rule, active = well fitted inhibition curve with a large enough effect; inconclusive = small, poorly fitted or top-dose-only effect; inactive = flat fitted curve, though single readings scatter.
OBSERVATION TYPE: outcome

Solved entries:
- MOLECULE: "Cc1[nH]c(=O)c(C#N)cc1-c1ccc2nccn2c1"
  outcome: "inactive"
- MOLECULE: "Nc1ncnc2nc(-c3ccc(N4CCOCC4)nc3)cc(-c3cccc(Br)c3)c12"
  outcome: "inactive"
- MOLECULE: "Cc1cc([C@@H](C)Nc2ccccc2C(=O)O)c2nc(N3CCOCC3)cc(=O)n2c1"
  outcome: "inactive"
- MOLECULE: "OC(CCN1CCCCC1)(c1ccccc1)C1CC2C=CC1C2 (stereo not drawn)"
  outcome: "inactive"
- MOLECULE: "CCn1cc(C(=O)O)c(=O)c2cc(F)c(N3CCNC(C)C3)c(F)c21 (stereo not drawn)"
  outcome: "inactive"

// each molecule listed below needs its outcome
1. COCC(=O)NCC=Cc1ccc2ncnc(Nc3ccc(Oc4ccc(C)nc4)c(C)c3)c2c1
2. CC(C)(Sc1ccc(CCN(CCCCC2CCCCC2)C(=O)NC2CCCCC2)cc1)C(=O)O
3. Cc1ccc(NC(=O)c2cccc(C(C)(C)C#N)c2)cc1Nc1ccc2ncn(C)c(=O)c2c1

Return:
1. inactive
2. inactive
3. inactive

###

PROCEDURE DETAILS: qHTS of pediatric cancer cell lines to identify multiple opportunities for drug repurposing: Confirmatory screen for A673 cells (AID 1347110);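 note: cells exposed to compound for 48 h before the viability read; nearly all actives have a fitted effect of over 65% in size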; note: potency is the fitted concentration of half-maximal effect
TEST CONTEXT: A673 Ewing sarcoma cell viability; series mostly up to 45.9 µM
Records with an inconclusive call do not appear. The source made the active and inactive calls. The call rests on the fitted dose curve; in most records, active means well fitted cell-killing curve with a large enough effect; inconclusive means small, poorly fitted or top-dose-only effect; inactive means flat fitted curve, though single readings scatter.
OBSERVATION TYPE: Potency

Solved entries:
- COMPOUND: "Cn1cnc([N+](=O)[O-])c1Sc1ncnc2nc[nH]c12"
  Potency: "1890 nM (active)"
- COMPOUND: "OC[C@H](Cc1ccccc1)Nc1nc(Oc2ccc3c(c2)CCC3)nc2c1ncn2Cc1ccc(-c2ccccc2)cc1"
  Potency: "4650 nM (active)"
- COMPOUND: "COc1ccc(-c2oc3cc(OC)ccc3c2C(=O)c2ccc(C#N)cc2)cc1"
  Potency: "inactive"
- COMPOUND: "NC(N)=NC(=O)c1nc(Cl)c(N)nc1N"
  Potency: "1170 nM (active)"
- COMPOUND: "OC(CN1CCC(Cc2ccc(F)cc2)CC1)c1ccc(Cl)cc1 (stereo unspecified)"
  Potency: "3690 nM (active)"

Enquiry: Endpoint output: Potency of `CC(C=CC1=C(C)CCCC1(C)C)=CC=CC(C)=CC(=O)O` . Value?
Return: inactive

###

System: NIH3T3
PROCEDURE DETAILS: Cytotoxic Profiling of Annotated Libraries Using Quantitative High-Throughput Screening (AID 1296008); note: nearly all actives have a fitted effect of over 60% in size
TEST CONTEXT: Five cell lines viability, CellTiter-Glo ATP luminescence, 48-72 h
Results filed as inconclusive are left out. Calls of active or inactive are those of the source. The call rests on the fitted dose curve; in most records, active means well fitted inhibition curve with a large enough effect; inconclusive means small, poorly fitted or top-dose-only effect; inactive means flat fitted curve, though single readings scatter.
Hello, when you answer, please use one of the following outcomes: yes (1) = active, no (0) = inactive

- COMPOUND: "CCCc1nc2c(C)cc(-c3nc4ccccc4n3C)cc2n1Cc1ccc(-c2ccccc2C(=O)O)cc1"
  TESTED ON: "NIH3T3"
  LABEL VALUE: "no (0)"
- COMPOUND: "OCCC#Cc1nc(-c2ccc(F)cc2)c(-c2ccncc2)n1CCCc1ccccc1"
  TESTED ON: "NIH3T3"
  LABEL VALUE: "no (0)"
- COMPOUND: "CN(C)c1ccc(Nc2nc(N)n(C(=O)c3c(F)cccc3F)n2)cc1"
  TESTED ON: "NIH3T3"
  LABEL VALUE: "yes (1)"
- COMPOUND: "OC(CCN1CCCCC1)(c1ccccc1)C1CC2C=CC1C2 (stereo unspecified)"
  TESTED ON: "NIH3T3"
  LABEL VALUE: "no (0)"
- COMPOUND: "COc1ccc(-c2ccc3c(N4CCOC[C@H]4C)nc(N4CCOC[C@H]4C)nc3n2)cc1CO"
  TESTED ON: "NIH3T3"
  LABEL VALUE: "yes (1)"

Enquiry: Returns: the outcome recorded for CCc1ccc(CCOc2ccc(CC3SC(=O)NC3=O)cc2)nc1 (stereo unspecified) in this assay.
Return: no (0)

Enquiry: Query CC(C[N+](C)(C)C)OC(N)=O (stereo unspecified) next
Return: no (0)

Enquiry: Query `Cc1cc(SCc2sc(-c3ccc(C(F)(F)F)cc3)nc2C)ccc1OCC(=O)O` next
Return: no (0)

Enquiry: Query `CO[C@@H]1[C@H](N(C)C(=O)c2ccccc2)C[C@H]2O[C@]1(C)n1c3ccccc3c3c4c(c5c6ccccc6n2c5c31)C(=O)NC4` next
Return: yes (1)

Enquiry: Query Cc1c(C)c2c(c(C)c1O)CCC(C)(COc1ccc(CC3SC(=O)NC3=O)cc1)O2 (stereo unspecified) next
Return: no (0)

Enquiry: Query `O=C(O)CCc1ccc(NCc2cccc(Oc3ccccc3)c2)cc1` next
Return: no (0)

Enquiry: Query `Cn1cnc2c(F)c(Nc3ccc(Br)cc3Cl)c(C(=O)NOCCO)cc21` next
Return: yes (1)

Enquiry: Query `Cc1cnc(NC(=O)C2=C(O)c3ccccc3S(=O)(=O)N2C)s1` next
Return: no (0)

Enquiry: Query `Cc1[nH]c(=O)c(C#N)cc1-c1ccc2nccn2c1` next
Return: no (0)

Enquiry: Query `Nc1nc2[nH]cc(CCc3ccc(C(=O)N[C@@H](CCC(=O)O)C(=O)O)cc3)c2c(=O)[nH]1` next
Return: yes (1)

Enquiry: Query COc1cc(Oc2ccnc3cc(OC)c(OC)cc23)ccc1NC(=O)NC(C)c1nccs1 (stereo unspecified) next
Return: no (0)

Enquiry: Query CC(C)(C)NCC(O)c1ccc(O)c(CO)c1 (stereo unspecified) next
Return: no (0)

Enquiry: Query `O=C(NOC[C@H](O)CO)c1ccc(F)c(F)c1Nc1ccc(I)cc1F` next
Return: yes (1)

Enquiry: Query `Cc1cnc(Nc2ccc(OCCN3CCCC3)cc2)nc1Nc1cccc(S(=O)(=O)NC(C)(C)C)c1` next
Return: no (0)

Enquiry: Query O=C(O)COCCN1CCN(C(c2ccccc2)c2ccc(Cl)cc2)CC1 (stereo unspecified) next
Return: no (0)

Enquiry: Query `COc1ccc(-c2oc3cc(OC)ccc3c2C(=O)c2ccc(C#N)cc2)cc1` next
Return: no (0)
